pKd by entry:
- SYSTEM: T1, TX1BP3, O14907
- T1 sequence (O14907 10-122, limits assumed, looked up): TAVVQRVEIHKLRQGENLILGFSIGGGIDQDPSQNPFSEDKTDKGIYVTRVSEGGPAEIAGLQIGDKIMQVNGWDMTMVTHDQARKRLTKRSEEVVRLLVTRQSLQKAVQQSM
- METHOD: holdup assay
- Set-up: key: below the threshold = too weak to quantify, mostly under pKd 3.1 to 4
- TEST_CONTEXT: plain residues with an end cap or a label only (N-terminal biotin on a linker: ttds)
RECORDED_ENDPOINT: pKd

BINDER: STLTIFETAL [ABCC4, O15439]
RESULT: 5.11
//
BINDER: PKTPPTDTSV [KIR3DL3, Q8N743]
RESULT: 3.67
//
BINDER: ERKLSSESQV [LRP4, O75096]
RESULT: 4.27
//
BINDER: QSARYRDTEL [TJP2, Q9UDY2]
RESULT: 4.76
